Origin of measurements: ChEMBL document CHEMBL6134795

SYSTEM: Cholinesterase (Homo sapiens, UniProt P06276)
Sequence (P06276 whole entry): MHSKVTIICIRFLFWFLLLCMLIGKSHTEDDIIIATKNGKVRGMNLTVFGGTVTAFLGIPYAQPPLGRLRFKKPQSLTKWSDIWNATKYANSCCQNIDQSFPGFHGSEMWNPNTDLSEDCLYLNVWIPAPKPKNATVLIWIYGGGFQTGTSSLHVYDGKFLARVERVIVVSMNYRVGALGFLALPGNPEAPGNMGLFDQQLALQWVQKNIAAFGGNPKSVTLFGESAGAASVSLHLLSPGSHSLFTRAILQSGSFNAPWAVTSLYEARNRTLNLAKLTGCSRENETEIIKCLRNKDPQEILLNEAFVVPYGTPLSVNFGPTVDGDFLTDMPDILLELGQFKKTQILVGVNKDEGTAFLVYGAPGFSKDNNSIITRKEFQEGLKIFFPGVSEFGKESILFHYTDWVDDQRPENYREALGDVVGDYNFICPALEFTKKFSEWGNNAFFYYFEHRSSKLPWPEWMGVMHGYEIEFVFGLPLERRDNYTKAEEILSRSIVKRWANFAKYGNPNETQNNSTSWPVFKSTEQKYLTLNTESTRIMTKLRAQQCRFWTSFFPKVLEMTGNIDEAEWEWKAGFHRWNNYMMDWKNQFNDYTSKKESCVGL
ASSAY PROTOCOL: Inhibition of BuChE (unknown origin)
MEASURED PROPERTY: IC50 (µM)
Numbers only here, please. The scale is µM.

Give IC50 only, for O=C(NCCC1CCN(Cc2ccccc2)CC1)c1coc2cc(OCc3ccccc3)ccc2c1=O , using Cholinesterase (Homo sapiens, UniProt P06276) data.
5.24

====

SYSTEM: Amine oxidase [flavin-containing] B (Homo sapiens, UniProt P27338)
Sequence (P27338 whole entry): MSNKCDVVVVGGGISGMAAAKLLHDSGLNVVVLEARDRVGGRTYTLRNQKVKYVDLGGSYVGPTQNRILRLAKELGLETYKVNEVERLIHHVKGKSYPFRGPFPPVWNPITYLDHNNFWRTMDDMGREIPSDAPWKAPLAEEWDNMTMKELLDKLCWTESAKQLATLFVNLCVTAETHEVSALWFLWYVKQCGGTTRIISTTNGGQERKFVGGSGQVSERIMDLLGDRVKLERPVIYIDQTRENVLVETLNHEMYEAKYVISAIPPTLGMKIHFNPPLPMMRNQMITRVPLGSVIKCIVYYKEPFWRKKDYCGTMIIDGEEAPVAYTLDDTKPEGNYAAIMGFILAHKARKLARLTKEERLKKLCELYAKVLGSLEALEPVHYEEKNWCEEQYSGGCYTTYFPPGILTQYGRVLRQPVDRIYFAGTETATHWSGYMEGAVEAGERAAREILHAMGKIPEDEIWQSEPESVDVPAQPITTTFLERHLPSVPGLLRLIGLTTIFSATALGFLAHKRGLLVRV
ASSAY PROTOCOL: Inhibition of recombinant MAO-B (unknown origin) at 20 uM preincubated for 30 mins followed substrate addition by Amplex Red reagent based fluorescence analysis relative to control
Listed here: items and their measured inhibition at 20 µM.
Numbers only here, please. The scale is %.

Fill in reported inhibition at 20 µM for this entry: C#CCCCOc1c(CN2CCOCC2)cc(-c2cc(=O)c3ccccc3o2)cc1CN1CCOCC1
18.1

Fill in reported inhibition at 20 µM for this entry: C#CCCCOc1ccc(-c2cc(=O)c3ccccc3o2)cc1CN1CCCCC1
61.2

Fill in reported inhibition at 20 µM for this entry: C#CCOc1ccc(-c2cc(=O)c3ccccc3o2)cc1CN1CCOCC1
28.1

***
Fill in reported inhibition at 20 µM for this entry: C#CCOc1c(CN2CCCCC2)cc(-c2cc(=O)c3ccccc3o2)cc1OC
50.8

Fill in reported inhibition at 20 µM for this entry: C#CCCOc1c(CN2CCOCC2)cc(-c2cc(=O)c3ccccc3o2)cc1OC
26.6
